src = BindingDB's records for PubMed 30795990

- study-system: Cyclin-dependent kinase 11B (Homo sapiens) (UniProt P21127)
- Sequence (P21127 whole entry, looked up, the tested form may be a part): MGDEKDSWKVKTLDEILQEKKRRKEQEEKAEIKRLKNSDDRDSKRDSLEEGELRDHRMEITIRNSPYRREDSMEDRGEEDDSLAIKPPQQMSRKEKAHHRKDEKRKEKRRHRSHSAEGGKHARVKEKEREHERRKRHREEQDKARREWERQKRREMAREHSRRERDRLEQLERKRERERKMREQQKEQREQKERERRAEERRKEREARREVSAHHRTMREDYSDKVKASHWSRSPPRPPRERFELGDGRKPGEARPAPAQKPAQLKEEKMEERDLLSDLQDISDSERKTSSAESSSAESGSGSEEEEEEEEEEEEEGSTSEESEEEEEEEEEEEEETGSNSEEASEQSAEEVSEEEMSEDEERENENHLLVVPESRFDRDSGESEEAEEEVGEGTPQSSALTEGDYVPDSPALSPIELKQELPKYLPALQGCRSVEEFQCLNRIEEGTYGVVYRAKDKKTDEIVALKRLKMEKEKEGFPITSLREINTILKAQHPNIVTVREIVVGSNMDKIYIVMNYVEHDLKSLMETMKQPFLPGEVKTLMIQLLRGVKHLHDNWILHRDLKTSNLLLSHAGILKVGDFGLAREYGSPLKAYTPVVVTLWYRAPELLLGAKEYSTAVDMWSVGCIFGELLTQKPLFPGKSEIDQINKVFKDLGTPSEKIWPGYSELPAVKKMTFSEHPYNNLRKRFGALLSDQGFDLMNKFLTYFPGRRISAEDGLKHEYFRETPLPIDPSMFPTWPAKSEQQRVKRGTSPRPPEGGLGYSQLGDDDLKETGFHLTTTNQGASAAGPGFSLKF
- protocol-summary: Inhibition of GST-tagged human recombinant CDK11 (1 to 795 residues) expressed in baculovirus expression system
measurement-label: IC50

Observed IC50 on Cyclin-dependent kinase 11B (Homo sapiens) (UniProt P21127) for O=C(c1ccc2c(c1)OCCO2)C1CCN(c2ncnc3sccc23)CC1 , please.
> 1000 nM
